Please provide measured melting point for the entries that follow.

Check out these entries, answers already filled in.
MOLECULE	melting point
Cc1ncc(CCl)c2cc(C(=O)Nc3cccc(NC(=O)c4cc5c(CCl)cnc(C)c5oc4=O)c3)c(=O)oc12	274 °C (dec.)
Cc1ccnc(NS(=O)(=O)c2ccc(NC(=O)c3cc4c(CCl)cnc(C)c4oc3=O)cc2)n1	> 300 °C
Cc1ncc(CCl)c2cc(C(=O)N(c3ccccc3)c3ccccc3)c(=O)oc12.Cl	201 to 205 °C
Cc1ncc(CCl)c2cc(C(=O)NNC(=O)c3ccccc3)c(=O)oc12	240 °C (dec.)
CC(=O)NS(=O)(=O)c1ccc(NC(=O)c2cc3c(CCl)cnc(C)c3oc2=O)cc1	> 300 °C

Take each entry in turn and give its melting point.
1. Cc1ncc(CO)c2cc(C(=O)O)c(=O)oc12
2. Cc1ncc(COP(=O)(O)O)c2cc(C(=O)O)c(=O)oc12

**A:**
249 to 250 °C
> 300 °C

Take each entry in turn and give its melting point.
1. Cc1ncc(CCl)c2cc(C(=O)Nc3ccccn3)c(=O)oc12
2. Cc1ncc(CCl)c2cc(C(=O)Nc3cccnc3N)c(=O)oc12
3. Cc1ncc(CO)c2c1OC1=C(C(=O)CC(C)(C)C1)C2C1=C(O)CC(C)(C)CC1=O (stereo not drawn)
4. Cc1cc(C)nc(NS(=O)(=O)c2ccc(NC(=O)c3cc4c(CCl)cnc(C)c4oc3=O)cc2)n1
5. Cc1ncc(CCl)c2cc(C(=O)NNC(=O)c3ccncc3)c(=O)oc12
6. COc1ccccc1NC(=O)c1cc2c(CCl)cnc(C)c2oc1=O

**A:**
1: > 300 °C; 2: > 300 °C; 3: 219 to 224 °C; 4: > 300 °C; 5: > 300 °C; 6: 214 to 215 °C

Take each entry in turn and give its melting point.
1. Cc1ncc(CCl)c2cc(C(=O)Nc3ccccc3)c(=O)oc12
2. Cc1ncc(CCl)c2cc(C(=O)Nc3cccc(S(=O)(=O)c4cccc(NC(=O)c5cc6c(CCl)cnc(C)c6oc5=O)c4)c3)c(=O)oc12
3. Cc1ncc(CCl)c2cc(C(=O)Nc3ccc(S(=O)(=O)Nc4ncccn4)cc3)c(=O)oc12
4. Cc1ncc(CCl)c2cc(C(=O)Nc3ccccc3NC(=O)c3cc4c(CCl)cnc(C)c4oc3=O)c(=O)oc12
5. Cc1ncc(CCl)c2cc(C(=O)Nc3ccc(S(N)(=O)=O)cc3)c(=O)oc12
6. Cc1ncc(CCl)c2cc(C(=O)Nc3ccc([N+](=O)[O-])cc3Br)c(=O)oc12

**A:**
240 °C (dec.)
> 300 °C
> 300 °C
239 to 241 °C
> 300 °C
240 °C (dec.)

Take each entry in turn and give its melting point.
1. C#CCNC(=O)c1cc2c(CCl)cnc(C)c2oc1=O
2. Cc1ncc(CCl)c2cc(C(=O)Nc3ccc(NC(=O)c4cc5c(CCl)cnc(C)c5oc4=O)cc3)c(=O)oc12

**A:**
1: 161 °C (dec.); 2: > 300 °C
